B1: HDV Ribozyme (parent)
chain: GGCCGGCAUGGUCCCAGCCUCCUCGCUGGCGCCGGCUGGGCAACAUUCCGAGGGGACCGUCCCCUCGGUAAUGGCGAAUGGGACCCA

- Variants of: B1
- procedure text: self-cleavage, relative activity (ratio to wild type); higher = more cleavage; co-transcriptional
observable: self-cleavage

Query :: Data request, read-out self-cleavage, for C22A U27G
Result :: 0.151

Query :: Next entry: G68C A77U
Result :: 0.755

Query :: Next entry: C26U G74C
Result :: 0.519

Query :: Next entry: C41G C44G
Result :: 0.158

Query :: Next entry: C58G C66U
Result :: 1.01

Query :: Next entry: G82A A87G
Result :: 0.342

Query :: Next entry: C63A C66A
Result :: 0.302

Query :: Next entry: G10C C61U
Result :: 0.578

Query :: Next entry: G1A U46G
Result :: 0.138

Query :: Next entry: G38C G81A
Result :: 0

Query :: Next entry: G2U U27C
Result :: 0.0198

Query :: Next entry: C7G C66A
Result :: 0.161

Query :: Next entry: G50U G81A
Result :: 0.609

Query :: Next entry: U23C C62G
Result :: 0.987

Query :: Next entry: U12G A45C
Result :: 0.399

Query :: Next entry: G2A G50C
Result :: 0.205

Query :: Next entry: C22A C58G
Result :: 0.38

Query :: Next entry: G10A A78U
Result :: 0.0382

Query :: Next entry: A8U G10A
Result :: 0.684

Query :: Next entry: C18A A71G
Result :: 0.0739

Query :: Next entry: U46G A70G
Result :: 0.511

Query :: Next entry: A16C C85U
Result :: 0.795

Query :: Next entry: A45G A70G
Result :: 0.997

Query :: Next entry: G59C A78G
Result :: 0.778

Query :: Next entry: C41A U72A
Result :: 0.906

Query :: Next entry: C36A U65A
Result :: 0.163

Query :: Next entry: G17A G29A
Result :: 0.128

Query :: Next entry: G38A C41A
Result :: 0.185

Query :: Next entry: G1C A70C
Result :: 0.185

Query :: Next entry: U20C C62U
Result :: 0.0875

Query :: Next entry: C4U U65C
Result :: 1.06

Query :: Next entry: C4A A56U
Result :: 0.321

Query :: Next entry: C62A G67U
Result :: 0.464

Query :: Next entry: G67A A70C
Result :: 0.475

Query :: Next entry: U37A U46A
Result :: 0.185

Query :: Next entry: C26G A70G
Result :: 0.665

Query :: Next entry: C26G G76C
Result :: 0.884

Query :: Next entry: A45U C75U
Result :: 0.321

Query :: Next entry: A42C A87G
Result :: 0.219

Query :: Next entry: C19U C33U
Result :: 0.234

Query :: Next entry: C41U A43U
Result :: 0.489

Query :: Next entry: C24G G34A
Result :: 0.0332

Query :: Next entry: G59C C62U
Result :: 1.12

Query :: Next entry: G55A G67C
Result :: 0.942

Query :: Next entry: C15A G17C
Result :: 0.0978

Query :: Next entry: G39C A71G
Result :: 0.158

Query :: Next entry: G17A A51U
Result :: 0.884

Query :: Next entry: G53C U79G
Result :: 0.443

Query :: Next entry: G34U U47A
Result :: 0.128

Query :: Next entry: G5U G67A
Result :: 0.32

Query :: Next entry: A43C A78G
Result :: 0.0978

Query :: Next entry: C14A G67A
Result :: 0.435

Query :: Next entry: G39C G54C
Result :: 0.253

Query :: Next entry: G76C A78G
Result :: 0.944

Query :: Next entry: C4U U65G
Result :: 0.656

Query :: Next entry: G28C C75U
Result :: 0.0361

Query :: Next entry: G1U G39C
Result :: 0.397

Query :: Next entry: A56G A77G
Result :: 1.11

Query :: Next entry: G59C C66G
Result :: 1.14

Query :: Next entry: C58U A71U
Result :: 1.16

Query :: Next entry: G17A U72A
Result :: 0.219

Query :: Next entry: C7U A16G
Result :: 0.72

Query :: Next entry: C36U G52C
Result :: 0.779

Query :: Next entry: C21U C22G
Result :: 0.0264

Query :: Next entry: C13A C64U
Result :: 0.242

Query :: Next entry: U46C A56U
Result :: 1.09

Query :: Next entry: A42G G82C
Result :: 0.0396

Query :: Next entry: U23C C26U
Result :: 1.26

Query :: Next entry: C48U A83U
Result :: 0.475

Query :: Next entry: C7A A8G
Result :: 0.831

Query :: Next entry: U12C A70C
Result :: 0

Query :: Next entry: U23C C57G
Result :: 0.6

Query :: Next entry: C18A C22U
Result :: 0.0378

Query :: Next entry: G31U G82A
Result :: 0.185

Query :: Next entry: G28C G55U
Result :: 0.196

Query :: Next entry: U37G A71U
Result :: 0.0594

Query :: Next entry: C26G G59A
Result :: 0.903

Query :: Next entry: G40A G54U
Result :: 0.971

Query :: Next entry: C57G U79G
Result :: 0.506

Query :: Next entry: C24A U37A
Result :: 0.145

Query :: Next entry: G1U G17U
Result :: 0.309

Query :: Next entry: G68A A77G
Result :: 0.743

Query :: Next entry: G17U A43U
Result :: 0.185

Query :: Next entry: C33G C75G
Result :: 0.0426

Query :: Next entry: G1U C19G
Result :: 0.348

Query :: Next entry: C13A A83G
Result :: 0.086

Query :: Next entry: U27C G55A
Result :: 0.533

Query :: Next entry: C13U C48A
Result :: 0.415

Query :: Next entry: C30G U47G
Result :: 0.0678

Query :: Next entry: U69G A87C
Result :: 0.822

Query :: Next entry: C58A A71U
Result :: 1.05
